Test system: Nanoluciferase (engineered Oplophorus gracilirostris luciferase)
Experiment: Primary Nanoluciferase (NLuc) qHTS assay for identification of artifact compounds. (AID 1845222);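 further: NLuc secreted into diluted conditioned medium of S16 cells; 0% = DMSO and -100% = no enzyme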
Conditions: NLuc-conditioned medium, Nano-Glo luminescence, 5 min; series mostly up to 54.1 µM
Calls of active or inactive are those of the source. The call rests on the fitted dose curve; in most records, active means well fitted inhibition curve with a large enough effect; inconclusive means small, poorly fitted or top-dose-only effect; inactive means flat fitted curve, though single readings scatter.
MEASURED_ATTRIBUTE: activity, negative = inhibition

Consider the following illustrative entries.
N#C[C@@H](O[C@@H]1O[C@H](CO[C@@H]2O[C@H](CO)[C@@H](O)[C@H](O)[C@H]2O)[C@@H](O)[C@H](O)[C@H]1O)c1ccccc1    inactive
C[C@H]1C(=O)O[C@H]2[C@H](O)[C@]34C5OC(=O)[C@]3(O[C@@H]3OC(=O)[C@H](O)C34[C@H](C(C)(C)C)[C@H]5O)C12O (stereo not given in full)    inactive
C[C@@]1(C(=O)O)CC[C@]2(C)CC[C@]3(C)C4=CC(=O)c5cc(O)c(O)cc5[C@]4(C)CC[C@@]3(C)[C@@H]2C1    inactive
COC1CC(=O)C23C(=O)NC(CC(C)C)C2C(C)=C(C)C(OO)C3/C=C(\C)CCC(O)C1O (stereo not given)    inactive

Field: next compound
[Q] Can you look up the measured activity, negative = inhibition of C=CC(C)(O)CC/C=C(\C)C(=O)O[C@H]1[C@H](O)[C@@H](CO)O[C@@H](OC(=O)[C@]23CCC(C)(C)CC2C2=CCC4[C@@]5(C)CC[C@H](O[C@@H]6O[C@H](CO[C@@H]7OC[C@H](O)[C@H](O)[C@H]7O[C@@H]7OC[C@@H](O)[C@H](O)[C@H]7O)[C@@H](O)[C@H](O)[C@H]6O)C(C)(C)C5CC[C@@]4(C)[C@]2(C)CC3)[C@@H]1OC1OC(C)C(O[C@@H]2OC[C@@H](O)[C@H](O[C@@H]3OC[C@@H](O)[C@H](O)[C@H]3O)[C@H]2O)C(O)C1O (stereo not given in full) for me?
[A] 1.73% [at 11.6 µM] (inactive)

###

Experiment: Drug repurposing screens with cells derived from glioblastoma tumor samples (AID 1345199); further: potency means the concentration at half of the fitted maximal effect; nearly all actives have a fitted effect of over 40% in size
Details: GBM patient neurospheres viability, ATP luminescence, 48 h; tumour line A
Inconclusive results are not listed. Activity calls are given as the source filed them. Calls come from the whole dose curve; as a rule, active = well fitted inhibition curve with a large enough effect; inconclusive = small, poorly fitted or top-dose-only effect; inactive = flat fitted curve, though single readings scatter.
MEASURED_ATTRIBUTE: Potency

O=C1OC2(c3cc(Br)c(O)cc3Oc3c2cc(Br)c(O)[c]3[Hg])c2ccccc21 (centres undefined)    14.1 µM (active)
CC1CCC(C(C)C)C(OC(=O)c2ccccc2N)C1 (centres undefined)    12.6 µM (active)
C[C@]12CC[C@H]3[C@@H](CCC4=C(Cl)C(=O)CC[C@@]43C)[C@@H]1CC[C@@H]2O    12.6 µM (active)
C[C@]12CCC(=O)C[C@@H]1CC[C@@H]1[C@@H]2CC[C@]2(C)[C@@H](O)CC[C@@H]12    12.6 µM (active)
O=C1C[C@@H]2OCC=C3CN4CC[C@]56c7ccccc7N1[C@H]5[C@H]2[C@H]3C[C@H]46    12.6 µM (active)
c1cc2c(c(NC3=NCCN3)c1)CCCC2    14.1 µM (active)
C=C[C@H]1CN2CC[C@H]1C[C@H]2[C@H](OC(=O)OCC)c1ccnc2ccc(OC)cc12    10 µM (active)
CN1[C@@H]2CC[C@H]1CC(OC1c3ccccc3CCc3ccccc31)C2 (some centres undefined)    5.62 µM (active)

[Q] Name the reported Potency value associated with the compound `CC(C)[C@@]1(NC(=O)[C@@H]2C[C@@H]3c4cccc5[nH]cc(c45)C[C@H]3N(C)C2)O[C@@]2(O)[C@@H]3CCCN3C(=O)[C@H](Cc3ccccc3)N2C1=O`
[A] 3.16 µM (active)

###

System: Zika virus NS2B-NS3 protease (unlinked complex)
Assay: Primary screen GU Rhodamine qHTS for Zika virus inhibitors: Unlinked NS2B-NS3 protease assay (AID 1347159); further: nearly all actives have a fitted effect of over 60% in size
Conditions: Recombinant ZIKV NS2B-NS3 protease, Rhodamine110 substrate fluorescence; series mostly up to 107 µM
Records with an inconclusive call do not appear. The source made the active and inactive calls. Calls come from the whole dose curve; as a rule, active = well fitted inhibition curve with a large enough effect; inconclusive = small, poorly fitted or top-dose-only effect; inactive = no such curve, though single readings can be large or run the other way.
Give your call using only these classes: true for active, false for inactive

CCC(C)(C#N)O[C@@H]1O[C@H](CO)[C@@H](O)[C@H](O)[C@H]1O (some centres not stated)    false

Now consider a different molecule.
[Q] Per the records of this test, what outcome belongs to `C[C@@]1(C(=O)O)CC[C@]2(C)CC[C@]3(C)C4=CC(=O)c5cc(O)c(O)cc5[C@]4(C)CC[C@@]3(C)[C@@H]2C1` ?
[A] true

###

Test: qHTS drug screen for cell cycle checkpoint inhibitors in PARPi-resistant BRCA-mutant ovarian cancer cell lines. (AID 1963452)
Settings: PEO1/OlaR viability, CellTiter-Glo luminescence, 96 h; active compounds read low
Catalogue of Z-AUC values
A bare number is all that is needed in reply.

Some molecules with known Z-AUC results, for comparison:
COc1cc(C)[nH]c(=O)c1CNC(=O)c1c(C)n([C@H](C)C2CCOCC2)c2ccccc12    0.466
C[C@]12CC[C@H]3[C@@H](CC[C@@]45O[C@@H]4C(O)=C(C#N)C[C@]35C)[C@@H]1CC[C@@H]2O    0.0842
CC(=O)c1c(O)c(C)c(O)c(Cc2c(O)c3c(c(C(=O)/C=C/c4ccccc4)c2O)OC(C)(C)C=C3)c1O    1.03
C=C[C@H]1CN2CC[C@H]1C[C@@H]2[C@@H](O)c1ccnc2ccccc12    1.32

Okay, next one:
[Q] Given the entry `C/C(O)=C(\C#N)C(=O)Nc1cc(Br)ccc1Br` , report its measured Z-AUC.
[A] -0.13

###

System: CP291
Assay: qHTS profiling for inhibitors of Plasmodium falciparum proliferation (AID 504749);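 further: 0% = DMSO vehicle and full inhibition = artemisinin control; nearly all actives have a fitted effect of over 60% in size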
Details: P. falciparum in erythrocytes, SYBR Green DNA, 72 h; series mostly up to 28.7 µM
Results filed as inconclusive are left out. Calls of active or inactive are those of the source. The call rests on the fitted dose curve; in most records, active means well fitted inhibition curve with a large enough effect; inconclusive means small, poorly fitted or top-dose-only effect; inactive means flat fitted curve, though single readings scatter.
// classify into class 1 for active, class 0 for inactive

See these solved cases before continuing.
O=C(OCCN1CCCCC1)C(O)(c1ccccc1)c1ccccc1    class 0
O=C(O)C(Cl)(Cl)Cl    class 0
O=C/C=C/c1ccccc1    class 0

[Q] Assay result, entry CC(C)(O)C1C2OC(=O)C1C1(O)CC3OC34C(=O)OC2C14C (stereo not given) — outcome?
[A] class 0

[Q] Kindly provide the recorded test outcome for the following compound: CCC1C(C)=NN=C(c2ccc(OC)c(OC)c2)c2cc(OC)c(OC)cc21 (stereo not given)
[A] class 0

###

Test system: ECU
Assay: qHTS profiling for inhibitors of Plasmodium falciparum proliferation (AID 504749);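 further: 0% = DMSO vehicle and full inhibition = artemisinin control; nearly all actives have a fitted effect of over 60% in size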
Conditions: P. falciparum in erythrocytes, SYBR Green DNA, 72 h; series mostly up to 28.7 µM
Results filed as inconclusive are left out. Calls of active or inactive are those of the source. Calls come from the whole dose curve; as a rule, active = well fitted inhibition curve with a large enough effect; inconclusive = small, poorly fitted or top-dose-only effect; inactive = flat fitted curve, though single readings scatter.
Form entry, call: pick from 1 (yes) (active), 0 (no) (inactive)

[Q] // param item: `[O]=[Cd]` ; yields the recorded call
[A] 0 (no)

###

Test: Primary qHTS for inhibitors of La Crosse Virus (LACV) - induced cell death in SH-SY5Y cells (AID 1508616)
Settings: SH-SY5Y LACV cytopathicity rescue, ATP luminescence, 6 d; series mostly up to 9.63 µM
Results filed as inconclusive are left out. Active and inactive are the calls of the source. The call rests on the fitted dose curve; in most records, active means well fitted inhibition curve with a large enough effect; inconclusive means small, poorly fitted or top-dose-only effect; inactive means no such curve, though single readings can be large or run the other way.
Answer with one of the outcomes active, inactive

COc1ccc2c(c1)C13CCCCC1C(C2)N(C)CC3 (stereo unspecified)    inactive
CC(C)[C@@]1(NC(=O)[C@@H]2C[C@@H]3c4cccc5[nH]cc(c45)C[C@H]3N(C)C2)O[C@@]2(O)[C@@H]3CCCN3C(=O)[C@H](Cc3ccccc3)N2C1=O    inactive
CC(C)(C)c1cc(C=C(C#N)C#N)cc(C(C)(C)C)c1O    inactive
CCCN1CCc2cc(O)cc3c2[C@H]1Cc1ccc(O)c(O)c1-3    active
C[C@H](N)Cc1cccc(C(F)(F)F)c1    inactive

Okay, next one:
[Q] Dear colleague, could you share the recorded outcome for `CCCN1CCC[C@@H](c2cccc(O)c2)C1` when you have a moment?
[A] inactive

###

Assay: Cell Viability - LYMP2-005 (AID 967);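 further: cells exposed to compound for 24 h at 37 °C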
Conditions: LYMP2-005 lymphoblastoid cell viability; series mostly up to 92.2 µM
Inconclusive results are not listed. Calls of active or inactive are those of the source. The call rests on the fitted dose curve; in most records, active means well fitted cell-killing curve with a large enough effect; inconclusive means small, poorly fitted or top-dose-only effect, or effect the other way; inactive means no such curve, though single readings can be large or run the other way.
Would you mind answering with one of these outcomes? active, inactive

O=C/C=C/c1ccccc1    inactive
O=C1C=CC(=O)C=C1    inactive
C[C@H]1CCC[C@H](O)CCCCCc2cc(O)cc(O)c2C(=O)O1    inactive
NNC(N)=O    inactive

[Q] Fill in: this test's call for `CC(C)CCON=O` is ___
[A] inactive

[Q] How was `Oc1cc(Cl)c(Cl)cc1Cl` classified in this test?
[A] inactive

[Q] // return assay outcome for O=C1C2CC=CCC2C(=O)N1SC(Cl)(Cl)Cl (configuration not stated)
[A] active

[Q] Query: recorded result category for `COC1=CC(=O)O[C@@H](/C=C/c2ccccc2)C1` in this test
[A] inactive

[Q] For this compound, state the assay outcome: `[O]=[Cd]`
[A] inactive

[Q] What did the test return for `C[C@]12CCC(=O)C[C@@H]1CC[C@@H]1[C@@H]2CC[C@]2(C)[C@@H](O)CC[C@@H]12` ?
[A] inactive

[Q] Recorded test outcome, item `C=CCN=C=S`
[A] inactive

[Q] Recorded test outcome, item COc1ccc2c(c1OC)C(=O)OC2C1c2cc3c(cc2CCN1C)OCO3 (configuration not stated)
[A] inactive

[Q] For `[Cl-].[Cl-].[Hg+2]` , which call appears in the assay record?
[A] active

[Q] How did this test come out for `O=[N+]([O-])c1ccc(F)c([N+](=O)[O-])c1` ?
[A] inactive

[Q] Dear all, I need the recorded test outcome for `Clc1ccccc1Cl` , thank you.
[A] inactive

[Q] Hey, what did the test say about `CCCCCCCCOC(=O)c1ccccc1C(=O)OCCCCCCCC` ?
[A] inactive

[Q] GET /call?item= `ClC(Cl)(Cl)Cl` returns the recorded outcome of this test.
[A] inactive

Where these numbers come from: PubChem BioAssay (NCATS)
